# method: soluble on expression in E. coli; label from the status in PepcDB or PDB records
result-type: soluble on expression in E. coli

[
  {
    "query-sequence": "MKNMTALSPSELPRLIDFLEQRNEFAVYAGRVHIHPVTRFCIYWLLLTMTRIREAALMEWSELDGEVWRIPAERKKERRGHDVPLSRAMRWVLDQARGLNVNGRFVFESVNFQGHINKESPHVAMRRSGLDTTAHGLRSLARTYLREVLKVYNDVAEKLLAHSLGLEHHHHHH",
    "result-type": "soluble on expression in E. coli",
    "value": "not soluble"
  },
  {
    "query-sequence": "MSLIRSKYAFLQKLTRDLKMKSINIGEELEGATPPSVFIGSWNYPKVYAGPMIAPVQEEVEIFDSPERWIPERKTQEEIIDYRLNLVRGKQLVGVRDLDNHLVEKLQEISLSSGAIESEAQFRRKPRGLFFSEEQTPHGPSAVLENFEIENVKWDRELERAYHDTDLRAREAIVELHRKGTPFSAVQKALSVGALGEGKRRKLVPTRWSITACDSTLADHFLERVLEYEPIDTFRVHEFESLKNHYLILLTPSEWQYEWMEAFMKRDGRAMIFSDHETGKGKREYSRVGGCYYSAKMAVLDALDREEKQAGAIILREAYPGYVPLGVFNVRENVKNAMDTEPTMFNDLRGALEFIDSKLKLGLEAFRVRSNLLKELEVSRQTTLDSFFREGHHHHHH",
    "result-type": "soluble on expression in E. coli",
    "value": "not soluble"
  },
  {
    "query-sequence": "MGSDKIHHHHHHMQLITSLDIRNSEYLSKDRLISYHHQLRLIFSLGNQVKNVLEIGIFNSLLTDILKNNGYNVTTADVDPNLKPEMILDLTTDFSLPKDKFDAIVLFQVLEHFPYEQSEEALKKLAEATKKFLVISIPYCTQYLSFQIKSSFSGRPRYLLLSVPKFWSTKPVCDEHYWEMGLKGYPKKRILNSVANAGLTVKQEFIDPSYPYHYFLVLEKTNNI",
    "result-type": "soluble on expression in E. coli",
    "value": "not soluble"
  }
]

====

# method: soluble on expression in E. coli; label from the status in PepcDB or PDB records
result-type: soluble on expression in E. coli

[
  {
    "query-sequence": "MQGLTATLLPFGATLAKLTFPDKNGKNQDLVLGFDTIDEFEKDAASIGKTVGRVANRIKNSTLHFDGKQYTMTPNNGPHYLHGGPNGLGYRKWEVVRHAPESVSFSVRANEQDDGLPGDAKIDVTYTVNDRNQLIIEHHATCDTPGLLALTNHAYWNLDGSDTVAEHFLEMEADEFVEVDDTFCPTGAIRSVTDTGFDFRSGKQLKESGKDAEELLDLDNDLVITKKTP",
    "value": "not soluble"
  },
  {
    "query-sequence": "MGHHHHHHSHDGSLVHISISPYPAILHEYVSSSKWEDAVRLCRFVKEQTMWACLAAMAVANRDMTTAEIAYAAIGEIDKVQYINSIKNLPSKESKMAHILLFSGNIQEAEIVLLQAGLVYQAIQININLYNWERALELAVKYKTHVDTVLAYRQKFLETFGKQETNKRYLHYAEGLQIDWEKIKAKIEMEITKEREQSSSSQSSKSIGLKP",
    "value": "not soluble"
  },
  {
    "query-sequence": "MRRIDMRSWIQNTKKLLPDLLPVMQTRMQILQYIRLMQPIGRRNLSASLGMTERVLRSEVQVLKEQNLVHVASSGMTLTEEGTALVLALEDFMKEISGLKVLEKQLKETLDLDEVFVVPGDSDESPWVKLEMGRACVTCIKDRLTANNIVAVAGGTTLAAAADMMQLDCKDLHMLFVPARGGIGEGVELEANTICAKMAQNTMSNYRLLYVPDHVSSEAYASIVTEPSVKEVLELIRSSNIVIHGIGDALTMARRRSTSEADWLKIQASEAVGEAFGYYFNEEGNVVHKVRTVGMQLEDLQNVSHVVAVAGGSSKAKAIQAVIKQGHTSILITDEGAAKQLTKGFTL",
    "value": "not soluble"
  }
]

====

# method: soluble on expression in E. coli; label from the status in PepcDB or PDB records
result-type: soluble on expression in E. coli

[
  {
    "query-sequence": "MAHHHHHHMEHLSVTKNSQMNNLAAYNNQEANYSLAAPNQEEYSENDLFYTFYDKFNEIFLFIQNLKENKNDLEDEVDDNLIKTLHNLCLEFLNYIKQINDFGHMNLSKNDQDLIIESYEKFVRQCKQYNDKPQVKQLENEISNLLDLLFNNTSGRHNSWRSGKKRKKREKEKKKLISPP",
    "soluble on expression in E. coli": "soluble"
  },
  {
    "query-sequence": "MTTEHETHAAELGAPEPECARCGKVLPLCICDTVEPIASRTQLLILQHPQEQDRALGTARLTAQHFKNAEVRIGLSWPSLSKALGRTVHDPSRWAVLYLGSARAAELAEGREILAVDAKGQPEPHQDMILDEIEGVVLLDGTWSQAKALWWRNAWMLKCQRVILDPSAPSRYGRLRKEPRRDGLSTLEAAAMLLSRLEHRPEIETKLLEAFDRMLARFKQVQAERPDLAPKPKKRDWRRKKRGLEHHHHHH",
    "soluble on expression in E. coli": "not soluble"
  },
  {
    "query-sequence": "MSLLVIPAIDLQSGRCVRLKQGRFDQVTQFSVFPIERALHFAKLGAKRLHVVDLDGARSGKMQQLELICSMQKTGIPIQAGGGIRSIEQALECSNAGISQLVIGSLAITNPDLTIQIIEKIKPENIVLALDVRVDTKVPLLAINGWQNNSTSSLWEVVSYYENYGIKNILCTDIACDGMMNGPNFDLYQQAVEYFPQIAWQASGGVRHMQDITTLNSLGISAVILGLMLYQDHMNLEELLEGHHHHHH",
    "soluble on expression in E. coli": "soluble"
  },
  {
    "query-sequence": "MGSDKIHHHHHHMKGSTDLESRLPSAGAYGDRFASYFKLAKASVFKTGSLRTGEIAYTETSGYCHKPEPSVPVPPEDAFLVQTQLQDYPNHISWEDGRPGIVGTLRAGHTILRDLQRKPNAIIMGPHHTVHFYIPRATFNTVAEDLEARSISELAYVPAQPIDDDVIRGLIGTVRAAIKAPEETNRLFLDHLMMAAAVHLAQTYGGLKPRSLQHRGGLAPWQARLAIELLEGDLTGQLPLKDVAAACKLSVSYFSKAFCKTTGLAPHQWLLYRRVERAKSAMINEKTTLAEVALSCGFSDQSHFTRVFVRLVGTSPATWRRARNL",
    "soluble on expression in E. coli": "not soluble"
  },
  {
    "query-sequence": "MSLIEENLKQKIHDKFVAAKKNGHLKVTHAESKKLKDPQTTTQYWVTFAPSLALKPDANKNSDSKAEDPFANPDEELVVTEDLNGDGEYKLLLNKFPVVPEHSLLVTSEFKDQRSALTPSDLMTAYNVLCSLQGDKDDDVTCERYLVFYNCGPHSGSSQDHKHLQIMQMPEKFIPFQDVLCNGKDHFLPTFNAEPLQDDKVSFAHFVLPLPESSDQVDEDLLAMCYVSLMQRALTFFQDWTNESPELTKSYNVLLTKKWICVVPRSHAKSGPPLMLNINSTGYCGMILVKDREKLENLTEDPHLVDKSLLQCGFPNTAGQKPTEYHYEGHHHHHH",
    "soluble on expression in E. coli": "soluble"
  }
]

Looking up `MDFKQRHTWLKIASCKSISAKKRASIWQKLTEFDQYEMTTQTFAESFFPVDKLAQILMELETAEACFFDDVTLIWILDDAYPALLREIYEAPPILFCKGNIDLLQQQAIAIVGTRQMSEYGRKACMKIASELAENKLTIVSGMAIGIDSTAHRATLNKQGATIAVLGSGVNKVYPKKNELLAKEIVKEGLLLSEYLPDEEAKRWHFPERNRIISGLAIGTVIIEAAERSGSLITADIALEQNRQVFAVPGNIFIDTWQGTNYLIQEGAKLVMNSNNIIEEFIQIKP` , I found its soluble on expression in E. coli recorded as not soluble

====

# method: soluble on expression in E. coli; label from the status in PepcDB or PDB records

[
  {
    "query-sequence": "MAHHHHHHMADYGWTRGKLPKFRARSPFHRQQIARRMVTEMIRKDYCIVGGARAPALRILADHVVELAKAGDTDSRQQLAYFLHDPLMVDKAFDEYPRRFKDMNAKYAMMTRLKSRRRTDAVAMYFVEYKNRDMSDNHKGEDYSAGPERFFLPPRIVETEKGIQRPPHMQMAFDRWASKFKTEEFHHWWRLRHAKLRYWGVRNVPHPSDVDPLWTEKEEEEWHNEMLANTGEYEDLDLDDESYTAAGEGGEPSPAGDGPQPQRVG",
    "soluble on expression in E. coli": "not soluble"
  },
  {
    "query-sequence": "MALEFTTLPQLYAHDYDTVIDVRSPAEFAEDHLPGAINLPVLDNEERARVGTIYKQQSPFLARKLGAALVFRNAASHVEQSLSHHEGHWRPLVYCWRGGQRSGSFTWMLQQIGWRAEVVSGGYRTYRRLVNRYLYEDPLPHRLVALDGFTGTAKTEILARLPALGVQMLDLEALANHRGSLLGARPGGQPEQKAFESALAAALCRLDPTRPVVVEAESSRIGERILPPSLWAALCAAPRIEIEAPVAARSAYLTAAYDDILSDAETLTARLDPLRYHRGHAVVEGWLALVAAGDKHGVTRALMEQHYDPAYRKSRASHAVQVAARLRSDTLDHAGIDTLTAQVAAVLKAL",
    "soluble on expression in E. coli": "not soluble"
  }
]
